# Target system: Large T antigen (Simian virus 40);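 note: Confirmatory-stage PubChem screen for compounds that inhibit SV40 T antigen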
# Sequence (P03070 whole entry): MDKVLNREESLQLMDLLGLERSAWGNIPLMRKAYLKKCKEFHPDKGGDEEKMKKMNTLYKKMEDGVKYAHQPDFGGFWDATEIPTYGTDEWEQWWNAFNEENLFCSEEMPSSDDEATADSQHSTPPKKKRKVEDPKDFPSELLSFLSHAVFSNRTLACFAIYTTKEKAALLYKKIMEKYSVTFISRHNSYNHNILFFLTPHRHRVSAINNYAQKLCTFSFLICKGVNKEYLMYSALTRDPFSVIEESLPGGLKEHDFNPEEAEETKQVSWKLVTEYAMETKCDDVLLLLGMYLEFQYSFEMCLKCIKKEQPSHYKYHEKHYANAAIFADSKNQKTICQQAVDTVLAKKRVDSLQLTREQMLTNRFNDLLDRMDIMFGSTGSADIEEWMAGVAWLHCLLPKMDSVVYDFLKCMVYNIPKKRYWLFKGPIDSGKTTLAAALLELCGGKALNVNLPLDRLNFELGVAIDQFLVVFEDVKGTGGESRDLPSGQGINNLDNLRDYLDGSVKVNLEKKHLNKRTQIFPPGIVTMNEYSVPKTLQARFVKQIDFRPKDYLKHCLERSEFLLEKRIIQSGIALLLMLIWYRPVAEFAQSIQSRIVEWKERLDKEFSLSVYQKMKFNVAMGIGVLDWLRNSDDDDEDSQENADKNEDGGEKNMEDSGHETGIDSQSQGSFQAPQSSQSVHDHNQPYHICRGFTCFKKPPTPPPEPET
# Type: functional, Betapolyomavirus macacae
The source made the active and inactive calls.
Recorded metric: IC50

Some solved cases for reference:
O=C1NC(=O)N(c2ccccc2F)C(=O)/C1=C/c1ccc(Sc2nc3ccccc3[nH]2)o1    19.5 µM (active)
COc1ccc(N2CCN(C(=O)NC3CC(=O)N(c4ccc(OC)cc4)C3)CC2)cc1 (stereo not drawn)    43.3 µM (active)
CCOc1cc(NC2CS(=O)(=O)CC2O)c(OCC)cc1NC(=O)c1ccccc1 (stereo not drawn)    31.1 µM (active)

Report IC50 for every entry below.
1. CCOC(=O)c1ccc2c(c1)C1C=CCC1C(C(=O)O)N2 (stereo not drawn)
2. CNc1nn(-c2cccc(Cl)c2)nc1N

1. 14.2 µM (active)
2. 29.9 µM (active)

I'm hoping you can list IC50 for every compound here, please.
1. Cc1occc1C(=O)N/N=C/C=C/c1ccc(N(C)C)cc1
2. c1ccc(-c2ccc3c(c2)NCCN3)cc1

1: 19.7 µM (active); 2: 7.54 µM (active)

Consider the compound shown here: `CCCCN1Cc2c(nc3cc(-c4ccco4)nn3c2O)C1=O` What is its recorded IC50?
35.6 µM (active)

====

# Target system: Carboxy-terminal domain RNA polymerase II polypeptide A small phosphatase 1 (Homo sapiens, UniProt Q9GZU7)
# Sequence (Q9GZU7 whole entry): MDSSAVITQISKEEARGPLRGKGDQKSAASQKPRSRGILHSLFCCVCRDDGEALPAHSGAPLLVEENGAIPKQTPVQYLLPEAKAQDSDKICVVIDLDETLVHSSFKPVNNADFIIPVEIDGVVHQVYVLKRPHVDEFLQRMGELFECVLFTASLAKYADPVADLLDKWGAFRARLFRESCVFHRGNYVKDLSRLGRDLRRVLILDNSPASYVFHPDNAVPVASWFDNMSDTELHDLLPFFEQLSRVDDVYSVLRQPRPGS
# Experiment summary: inhibitors of CTDSP1, concentration-response testing, biochemical assay, absorbance-based, actives from ultra-high-throughput screening (AID 540297)
# Format: functional
Activity calls are given as the source filed them.
Recorded metric: IC50

Completed entries (count: 3):
COc1ccc(CCNC(=O)c2cc(-c3ccco3)nc3ccccc23)cc1    4.22 µM (active)
CCOc1ccccc1N1CCN(S(=O)(=O)c2ccc3c4c(cccc24)C(=O)N3)CC1    7.47 µM (active)
O=C(O)c1ccc(Oc2ccc(S(=O)(=O)c3ccc(C(=O)O)c(C(=O)O)c3)cc2)cc1    6.97 µM (active)

Dear colleague, could you send me IC50 for each of the items below? Thanks.
1. O=C(O)c1ccc(-n2c(-c3cc(-c4ccco4)[nH]n3)n[nH]c2=S)cc1
2. Cc1ccccc1NC(=O)CN1C(=O)N/C(=C\c2ccccc2OCc2ccc(C(=O)O)cc2)C1=O

["1.59 µM (active)", "4.3 µM (active)"]

====

# Target system: Luciferin 4-monooxygenase (Photinus pyralis)
# Sequence (P08659 whole entry): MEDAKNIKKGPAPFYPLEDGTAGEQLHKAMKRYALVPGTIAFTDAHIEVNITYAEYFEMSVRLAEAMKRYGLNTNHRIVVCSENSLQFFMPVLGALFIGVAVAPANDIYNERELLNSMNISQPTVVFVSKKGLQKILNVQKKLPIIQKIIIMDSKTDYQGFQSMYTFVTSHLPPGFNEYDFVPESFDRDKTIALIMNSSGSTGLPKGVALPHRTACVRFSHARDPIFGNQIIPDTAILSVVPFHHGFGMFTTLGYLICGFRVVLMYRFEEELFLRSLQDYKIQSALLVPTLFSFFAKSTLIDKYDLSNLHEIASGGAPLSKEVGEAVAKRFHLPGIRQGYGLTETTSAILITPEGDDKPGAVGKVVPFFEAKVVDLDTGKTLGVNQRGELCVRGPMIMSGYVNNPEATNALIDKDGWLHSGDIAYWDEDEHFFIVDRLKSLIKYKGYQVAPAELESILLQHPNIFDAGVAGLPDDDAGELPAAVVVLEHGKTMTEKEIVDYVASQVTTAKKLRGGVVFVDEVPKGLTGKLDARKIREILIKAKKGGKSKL
# Experiment summary: firefly luciferase enzyme inhibitors, dose response, biochemical, luminescence (AID 1891)
Activity calls are given as the source filed them.
Recorded metric: EC50

Recorded EC50, per entry:
COc1ccc(C(=O)Nc2cc(OC)nc(OC)n2)cc1    16.3 µM (active)
Cc1cccc(N2CCN(S(=O)(=O)c3ccc4c(c3)C(C)(C)C(=O)N4C)CC2C)c1 (configuration not stated)    > 112 µM (not active)
COc1ccc(-c2nnc(S)[nH]2)cc1    > 112 µM (not active)
CCCCn1c(N)c(N(CCC(C)C)C(=O)C2CC(=O)N(c3ccc(OC)cc3OC)C2)c(=O)[nH]c1=O (configuration not stated)    > 112 µM (not active)
CONC=NC(=O)NOCc1ccc(Cl)cc1Cl    > 112 µM (not active)

Kindly give each listed record's EC50.
1. Cc1cc(C)c2c(N=NN3CCOCC3)[nH]nc2n1
2. COc1ccc(C(c2sc3nc(C)nn3c2O)N2CCCCC2)cc1 (configuration not stated)
3. COc1cc2c(cc1OC)-c1cc(NC3CCCCCCC3)nc(=O)n1CC2
4. COc1cc(NC(=O)CN2C(=O)C(c3ccccc3)=NC23CCCCCC3)cc(OC)c1
5. Cc1nonc1C(=O)N/N=C/c1ccc(O)cc1
6. O=C(N=CNOCc1ccc(Cl)cc1Cl)NOCc1c(Cl)cccc1Cl

1: > 112 µM (not active); 2: > 112 µM (not active); 3: > 112 µM (not active); 4: > 112 µM (not active); 5: 0.916 µM (active); 6: > 112 µM (not active)

Bench note: what EC50 did OC1CN=C2C=CC=CN2C1 (configuration not stated) show?
> 112 µM (not active)
